Target: EGFR L858R (Homo sapiens (Human), UniProt P00533, L858R)
Sequence (P00533 25-1210 L858R): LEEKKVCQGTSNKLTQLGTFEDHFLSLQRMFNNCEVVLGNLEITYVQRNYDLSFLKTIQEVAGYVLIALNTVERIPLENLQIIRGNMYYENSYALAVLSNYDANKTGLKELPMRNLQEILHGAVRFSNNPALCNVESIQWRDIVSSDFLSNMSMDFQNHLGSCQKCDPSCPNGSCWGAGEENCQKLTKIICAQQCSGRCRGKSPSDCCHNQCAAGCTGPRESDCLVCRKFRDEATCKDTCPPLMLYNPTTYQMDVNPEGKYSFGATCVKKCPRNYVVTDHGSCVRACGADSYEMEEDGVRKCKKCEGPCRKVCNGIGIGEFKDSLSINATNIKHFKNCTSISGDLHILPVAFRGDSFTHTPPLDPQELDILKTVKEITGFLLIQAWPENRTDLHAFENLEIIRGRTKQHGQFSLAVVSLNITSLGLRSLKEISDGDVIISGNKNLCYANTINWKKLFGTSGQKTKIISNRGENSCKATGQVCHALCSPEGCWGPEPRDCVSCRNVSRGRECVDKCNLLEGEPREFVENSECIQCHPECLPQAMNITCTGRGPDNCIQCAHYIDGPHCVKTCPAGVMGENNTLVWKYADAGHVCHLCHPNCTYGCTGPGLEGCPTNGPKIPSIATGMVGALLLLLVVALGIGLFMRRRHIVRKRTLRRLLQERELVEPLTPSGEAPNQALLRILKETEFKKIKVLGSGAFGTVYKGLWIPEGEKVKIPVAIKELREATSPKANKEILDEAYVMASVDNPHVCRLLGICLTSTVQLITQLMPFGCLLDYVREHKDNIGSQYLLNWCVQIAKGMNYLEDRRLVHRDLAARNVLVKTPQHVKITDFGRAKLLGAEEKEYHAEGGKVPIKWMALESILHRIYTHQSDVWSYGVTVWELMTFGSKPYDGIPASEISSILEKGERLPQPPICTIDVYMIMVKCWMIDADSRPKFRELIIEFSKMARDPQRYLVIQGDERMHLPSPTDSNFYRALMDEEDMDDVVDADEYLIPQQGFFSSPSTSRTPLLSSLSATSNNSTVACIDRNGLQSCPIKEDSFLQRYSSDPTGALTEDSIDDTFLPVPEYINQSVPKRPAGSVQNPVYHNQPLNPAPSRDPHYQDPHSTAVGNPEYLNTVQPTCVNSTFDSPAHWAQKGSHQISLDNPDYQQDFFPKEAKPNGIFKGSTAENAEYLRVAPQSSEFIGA
Experiment: Biochemical EGFR inhibition assay, EGFR L858R
Conditions: Caliper mobility shift; 1.0 mM ATP or ATP Km; read-out: Enz EGFR_L858R IC50
Record form. Attribute: IC50. Fill in for each entry.
Give bare numbers, in nM.

> print(dat)
                                   compound  measured.metric  observed.measurement
1  COc1cc2ncnc(-c3cn(C)nc3-c3ccccc3)c2nc1OC(C)c1cn(C)nn1 (stereo not drawn)             IC50                   6.1

Value sought for every listed compound: IC50.
1. CCOc1cc2ncnc(-c3cn(C)nc3-c3ccccc3)c2cc1NC(=O)[C@@]12C[C@@H]1CN(C)C2 (single isomer, unassigned)
2. COc1cc2ncnc(-c3cn(C)nc3-c3ccccc3)c2nc1NC(=O)c1ccc(C2CC2)nc1
3. CCn1cc(-c2ncnc3cc(OC)c(NC(=O)[C@@]45C[C@@H]4CN(C)C5)nc23)c(-c2ccc(F)cc2)n1 (single isomer, unassigned)

**Result**
1: 0.8; 2: 2.2; 3: 2.6

Reference source for all entries: patent US20250236608A1
